assay: DPPH antioxidant (radical scavenging) assay; assay type: biochemical; conditions: DPPH, 550 nm; samples 100 to 0.7 µg/ml

>  <molecule>
O=C1O[C@H]([C@@H](O)CO)C(O)=C1O [vitamin C, reference compound]

>  <sign-qualifier>
=

>  <Antioxidant IC50 (µg/mL)>
1.98

$$$$
>  <molecule>
CC(=O)OC/C=C(\C)CCC[C@H](C)CCC[C@H](C)CCCC(C)C [Compound C1, phytol acetate]

>  <sign-qualifier>
>

>  <Antioxidant IC50 (µg/mL)>
100

$$$$
>  <molecule>
CCCCCCCCCCCCCCCCCCCCCCCCCCCCCCO

>  <sign-qualifier>
>

>  <Antioxidant IC50 (µg/mL)>
100

$$$$
>  <molecule>
COc1c(C)c(O)c(Cc2c(O)c(C)c(OC)c(C(=O)C(C)C)c2O)c(O)c1C(=O)C(C)C

>  <sign-qualifier>
=

>  <Antioxidant IC50 (µg/mL)>
5.05

$$$$
>  <molecule>
C/C(=C\CO)CCC[C@H](C)CCC[C@H](C)CCCC(C)C

>  <sign-qualifier>
>

>  <Antioxidant IC50 (µg/mL)>
100

$$$$
